tested on: HCI-019 (organoid from a triple-negative breast cancer xenograft); assay: CTG-3D luminescence at 96 h relative to day-0 seeding control (ratio to day 0); higher = more growth / less cytotoxicity; PDxO 3D drug screen, 96 h, CTG-3D normalised to day-0 seeding control.; conditions: 625 fM; days in culture: 152
measured-endpoint: CTG-3D luminescence at 96 h
The response must contain the number and no unit.

Answer with the recorded CTG-3D luminescence at 96 h of Cc1cc(Nc2ncc(Cl)c(Nc3ccccc3S(=O)(=O)C(C)C)n2)c(OC(C)C)cc1C1CCNCC1 [ceritinib] only. 2.52

Report CTG-3D luminescence at 96 h for NC(=O)c1cccc2cn(-c3ccc([C@@H]4CCCNC4)cc3)nc12 [niraparib] 2.35

Consider the compound NC(=O)Nc1cc(-c2cccc(F)c2)sc1C(=O)N[C@H]1CCCNC1 [AZD7762] . State its measured CTG-3D luminescence at 96 h. 3.06

Return the recorded CTG-3D luminescence at 96 h value; entry: C=CCn1c(=O)c2cnc(Nc3ccc(N4CCN(C)CC4)cc3)nc2n1-c1cccc(C(C)(C)O)n1 [adavosertib] 2.53

Identify CTG-3D luminescence at 96 h associated with the compound CNC(=O)c1cccc(-c2ccc3c(N4CCOC[C@@H]4C)nc(N4CCOC[C@@H]4C)nc3n2)c1 [vistusertib] 2.52

Indicate its recorded CTG-3D luminescence at 96 h; the compound in question is COc1cc2c(Oc3ccc4[nH]c(C)cc4c3F)ncnc2cc1OCCCN1CCCC1 [cediranib] 2.04

For C=CC(=O)N1CCC[C@@H](n2nc(-c3ccc(Oc4ccccc4)cc3)c3c(N)ncnc32)C1 [ibrutinib] , write its CTG-3D luminescence at 96 h. 2.48

Name the recorded CTG-3D luminescence at 96 h of the compound listed here: C[C@H](NC(=O)CCC(F)(F)F)C(=O)N[C@@H]1C(=O)N(CCO)c2ncccc2-c2ccccc21 [crenigacestat] 2.48

Name the recorded CTG-3D luminescence at 96 h of the compound listed here: Cc1cc(Nc2ncnc3ccc(NC4=NC(C)(C)CO4)cc23)ccc1Oc1ccn2ncnc2c1 [tucatinib] 2
